Reported values of koff for individual entries
target-or-system: T1, soluble Homo sapiens CD131 comprising a C-terminal 6xHis tag (human, UniProt P32927 17-438)
T1 construct: truncated after Ser438, C-terminal 6xHis; also called shCD131; shβc
T1 sequence: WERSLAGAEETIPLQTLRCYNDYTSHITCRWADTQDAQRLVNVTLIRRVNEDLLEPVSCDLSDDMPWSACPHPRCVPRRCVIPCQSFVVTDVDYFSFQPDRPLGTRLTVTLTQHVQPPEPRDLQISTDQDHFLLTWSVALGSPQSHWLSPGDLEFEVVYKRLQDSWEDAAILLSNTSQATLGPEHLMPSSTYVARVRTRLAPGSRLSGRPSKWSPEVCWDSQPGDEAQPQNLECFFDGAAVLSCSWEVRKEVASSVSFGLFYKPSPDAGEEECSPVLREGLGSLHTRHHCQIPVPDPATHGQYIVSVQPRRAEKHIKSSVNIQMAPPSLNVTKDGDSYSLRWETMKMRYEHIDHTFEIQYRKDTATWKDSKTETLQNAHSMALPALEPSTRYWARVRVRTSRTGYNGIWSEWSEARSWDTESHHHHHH
protocol-details: SPR, Fab over captured shCD131
Output spec: scalar in s⁻¹, unitless text.

binder	measured-metric	unit-tag	numeric-readout
9A2-VR24.110 Fab (Fab, V domains shown, recombinant Fab) VH: EVQLLESGGGLVQPGGSLRLSCAASGFTFPWYRVHWVRQAPGKGLEWVSSIRSSGGFPYYNNHVKGRFTISRDNSKNTLYLQMNSLRAEDTAVYYCARFYDSFFDIWGQGTMVTVSS VL: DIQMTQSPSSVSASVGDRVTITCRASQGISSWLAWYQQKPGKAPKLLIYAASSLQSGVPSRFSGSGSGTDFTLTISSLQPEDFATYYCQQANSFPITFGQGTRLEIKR	koff	s⁻¹	0.000475

Endpoint output: koff of 9A2-VR24.10 Fab (Fab, V domains shown, recombinant Fab) VH: EVQLLESGGGLVQPGGSLRLSCAASGFTFPWYRVHWVRQAPGKGLEWVSSIHTGSQWTYYADSVKGRFTISRDNSKNTLYLQMNSLRAEDTAVYYCARFYDSFFDIWGQGTMVTVSS VL: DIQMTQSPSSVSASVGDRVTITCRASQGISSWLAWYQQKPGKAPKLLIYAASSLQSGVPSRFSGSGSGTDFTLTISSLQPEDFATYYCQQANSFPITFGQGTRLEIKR . Value?
0.00055

What about 9A2-VR24.57 Fab (Fab, V domains shown, recombinant Fab) VH: EVQLLESGGGLVQPGGSLRLSCAASGFTFPWYRVHWVRQAPGKGLEWVSSIRSSGGFTYYNPKVKHRFTISRDNSKNTLYLQMNSLRAEDTAVYYCARFYDSFFDIWGQGTMVTVSS VL: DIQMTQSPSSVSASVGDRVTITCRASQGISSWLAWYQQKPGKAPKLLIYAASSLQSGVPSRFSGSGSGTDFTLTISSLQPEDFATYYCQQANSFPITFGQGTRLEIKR ?
0.000841
